Give cAMP Rel EC50, nM (in the presence of 1% HSA) for every item shown.
Biological target: hGLP-1R (Homo sapiens, UniProt P43220)
Sequence (P43220 24-463): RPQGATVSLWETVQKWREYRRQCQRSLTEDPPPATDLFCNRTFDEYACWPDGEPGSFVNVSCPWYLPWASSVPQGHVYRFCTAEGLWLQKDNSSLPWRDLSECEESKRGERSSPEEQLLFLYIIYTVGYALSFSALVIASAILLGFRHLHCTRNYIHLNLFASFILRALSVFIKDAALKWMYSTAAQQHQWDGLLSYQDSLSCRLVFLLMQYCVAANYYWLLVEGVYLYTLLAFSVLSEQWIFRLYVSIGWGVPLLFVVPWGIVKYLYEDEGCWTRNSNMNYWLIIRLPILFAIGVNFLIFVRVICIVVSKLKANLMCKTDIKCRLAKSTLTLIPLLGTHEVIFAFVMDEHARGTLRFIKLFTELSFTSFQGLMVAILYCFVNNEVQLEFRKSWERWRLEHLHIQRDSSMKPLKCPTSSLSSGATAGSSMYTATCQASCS
Assay: cell-based or functional assay
Output spec: scalar in nM, unitless text.

Asked: What value of cAMP Rel EC50, nM (in the presence of 1% HSA) has been reported for the following binder? YXQGTFTSDFSXXLDKKAQXAFIEYLLEAGPSSGAPPPSEG (not fully specified; synthetic construct; SITE 2: note = 2-Aminoisobutyric Acid; SITE 12: note = L-ornithine; SITE 13: note = alpha-methyl-leucine; SITE 17: note = Lysine is chemically modified through conjugation of the epsilon-amino group of the Lysine side chain with (2-[2-(2-Amino-ethoxy)-ethoxy]-acetyl)2-(gamma-Glu)) [Example 72]
Given back: 683

Asked: Same lookup for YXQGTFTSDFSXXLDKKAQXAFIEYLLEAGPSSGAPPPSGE (synthetic construct; SITE 2: note = 2-Aminoisobutyric Acid; SITE 12: note = L-ornithine; SITE 13: note = alpha-methyl-leucine; SITE 17: note = Lysine is chemically modified through conjugation of the epsilon-amino group of the Lysine side chain with (2-[2-(2-Amino-ethoxy)-ethoxy]-acetyl)2-(gamma-Glu)) [Example 128] , please.
Given back: 679

Asked: Same lookup for YXQGTFTSDFSKXLDKKAQXAFIEYLLEGGPSSGAPPPXGE (synthetic construct; SITE 2: note = 2-Aminoisobutyric Acid; SITE 13: note = alpha-methyl-leucine; SITE 17: note = Lysine is chemically modified through conjugation of the epsilon-amino group of the Lysine side chain with (2-[2-(2-Amino-ethoxy)-ethoxy]-acetyl)-(gamma-Glu)-CO-(CH2) 18-CO2H; SITE 20: n) [Example 53] , please.
Given back: 1030

Asked: Same lookup for YXQGTFTSDFSKXLDKKAQXQFIEYLLEGGPSSGAPPPSEG (synthetic construct; SITE 2: note = 2-Aminoisobutyric Acid; SITE 13: note = alpha-methyl-leucine; SITE 17: note = Lysine is chemically modified through conjugation of the epsilon-amino group of the Lysine side chain with (2-[2-(2-Amino-ethoxy)-ethoxy]-acetyl)-(gamma-Glu)-CO-(CH2) 16-CO2H; SITE 20: n) [Example 51] , please.
Given back: 1210

Asked: Same lookup for YXQGTFTSDFSKXLDKKAQXAFIEYLLEGGPSSGAPPPSGS (synthetic construct; SITE 2: note = 2-Aminoisobutyric Acid; SITE 13: note = alpha-methyl-leucine; SITE 17: note = Lysine is chemically modified through conjugation of the epsilon-amino group of the Lysine side chain with (2-[2-(2-Amino-ethoxy)-ethoxy]-acetyl)2-(gamma-Glu)-CO-(CH2 )16-CO2H; SITE 20:) [Example 142] , please.
Given back: 391

Asked: Same lookup for YXQGTFTSDFSXXLDKKAQXAFIEYLLAGGPSSGEPPPEGE (synthetic construct; SITE 2: note = 2-Aminoisobutyric Acid; SITE 12: note = L-ornithine; SITE 13: note = alpha-methyl-leucine; SITE 17: note = Lysine is chemically modified through conjugation of the epsilon-amino group of the Lysine side chain with (2-[2-(2-Amino-ethoxy)-ethoxy]-acetyl)-(gamma-Glu)) [Example 98] , please.
Given back: 660

Asked: Same lookup for YXQGTFTSDFSKXLDKKAQXAFIEYLLEGGPSSGAPPPSEGX (synthetic construct; SITE 2: note = 2-Aminoisobutyric Acid; SITE 13: note = alpha-methyl-leucine; SITE 17: note = Lysine is chemically modified through conjugation of the epsilon-amino group of the Lysine side chain with (2-[2-(2-Amino-ethoxy)-ethoxy]-acetyl)-(gamma-Glu)-CO-(CH2) 16-CO2H; SITE 20: n) [Example 56] , please.
Given back: 167

Asked: Same lookup for YXQGTFTSDFSXXLDKKAQXAFIEYLLAGGTSSGEPPPSGE (synthetic construct; SITE 2: note = 2-Aminoisobutyric Acid; SITE 12: note = L-ornithine; SITE 13: note = alpha-methyl-leucine; SITE 17: note = Lysine is chemically modified through conjugation of the epsilon-amino group of the Lysine side chain with (2-[2-(2-Amino-ethoxy)-ethoxy]-acetyl)-(gamma-Glu)) [Example 106] , please.
Given back: 977

Asked: Same lookup for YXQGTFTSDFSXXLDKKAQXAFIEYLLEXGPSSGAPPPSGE (synthetic construct; SITE 2: note = 2-Aminoisobutyric Acid; SITE 12: note = L-ornithine; SITE 13: note = alpha-methyl-leucine; SITE 17: note = Lysine is chemically modified through conjugation of the epsilon-amino group of the Lysine side chain with (2-[2-(2-Amino-ethoxy)-ethoxy]-acetyl)2-(gamma-Glu)) [Example 111] , please.
Given back: 878

Asked: Same lookup for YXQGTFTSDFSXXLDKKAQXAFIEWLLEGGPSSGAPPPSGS (synthetic construct; SITE 2: note = 2-Aminoisobutyric Acid; SITE 12: note = L-ornithine; SITE 13: note = alpha-methyl-leucine; SITE 17: note = Lysine is chemically modified through conjugation of the epsilon-amino group of the Lysine side chain with (2-[2-(2-Amino-ethoxy)-ethoxy]-acetyl)-(gamma-Glu)) [Example 78] , please.
Given back: 560
